Molecular target: human CD33 W22L (human, UniProt P20138 18-364)
Sequence (P20138 18-364 W22L limits assumed): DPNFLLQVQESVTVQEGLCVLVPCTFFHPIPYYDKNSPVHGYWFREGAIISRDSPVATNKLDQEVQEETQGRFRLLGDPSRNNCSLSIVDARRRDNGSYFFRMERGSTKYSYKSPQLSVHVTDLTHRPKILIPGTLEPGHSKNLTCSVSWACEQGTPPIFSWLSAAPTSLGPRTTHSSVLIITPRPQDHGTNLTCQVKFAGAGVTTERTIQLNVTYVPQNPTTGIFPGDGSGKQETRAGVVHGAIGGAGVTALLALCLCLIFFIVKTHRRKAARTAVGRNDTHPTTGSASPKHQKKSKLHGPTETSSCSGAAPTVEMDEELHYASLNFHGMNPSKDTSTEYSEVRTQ
Assay: flow cytometry, mutant on cells, IgG
property-name: Mean % WT Binding
Write down the value, and be sure its unit follows.

Refmab #1 (antibody, human IgG1, V domains shown, Tested in IgG format; human IgG1 (Absolute Antibody hP67.6, Cat. No. Ab00283-10.0); also called hP67.6) VH: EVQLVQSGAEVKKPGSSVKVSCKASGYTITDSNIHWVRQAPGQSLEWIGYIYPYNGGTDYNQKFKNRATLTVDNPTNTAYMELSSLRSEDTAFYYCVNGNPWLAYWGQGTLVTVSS VL: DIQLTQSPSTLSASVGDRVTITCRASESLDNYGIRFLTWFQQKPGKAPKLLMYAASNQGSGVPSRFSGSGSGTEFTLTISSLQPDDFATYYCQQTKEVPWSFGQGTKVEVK :: 45.8 % WT binding
Refmab #4 (antibody, human IgG1, V domains shown, Tested in IgG format; human IgG1 Fc silent (PG-LALA)) VH: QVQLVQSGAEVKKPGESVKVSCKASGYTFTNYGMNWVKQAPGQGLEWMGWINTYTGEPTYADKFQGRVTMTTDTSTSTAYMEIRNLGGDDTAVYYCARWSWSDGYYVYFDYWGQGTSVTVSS VL: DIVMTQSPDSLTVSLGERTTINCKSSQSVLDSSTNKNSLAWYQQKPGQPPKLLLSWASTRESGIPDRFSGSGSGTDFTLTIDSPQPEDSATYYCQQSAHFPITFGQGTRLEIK :: 108 % WT binding
Refmab #3 (antibody, human IgG1, V domains shown, Tested in IgG format; human IgG1 Fc silent (PG-LALA)) VH: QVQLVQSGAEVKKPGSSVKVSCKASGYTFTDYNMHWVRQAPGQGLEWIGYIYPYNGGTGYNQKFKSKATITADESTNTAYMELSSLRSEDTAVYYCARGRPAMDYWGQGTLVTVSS VL: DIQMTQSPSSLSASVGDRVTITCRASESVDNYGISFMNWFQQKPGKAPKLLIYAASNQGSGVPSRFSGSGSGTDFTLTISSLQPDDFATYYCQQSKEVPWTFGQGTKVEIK :: 1.5 % WT binding

Prompt line: Please supply the value of reported Mean % WT Binding for the item Refmab #2 (antibody, human IgG1, V domains shown, Tested in IgG format; human IgG1 Fc silent (PG-LALA)) VH: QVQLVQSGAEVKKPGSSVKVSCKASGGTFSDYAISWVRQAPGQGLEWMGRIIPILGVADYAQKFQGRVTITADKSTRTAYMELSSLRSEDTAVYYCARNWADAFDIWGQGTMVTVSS VL: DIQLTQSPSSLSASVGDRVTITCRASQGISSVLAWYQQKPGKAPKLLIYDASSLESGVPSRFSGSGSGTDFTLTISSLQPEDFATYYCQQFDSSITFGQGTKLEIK
Response line: 110 % WT binding
